Hello, the source for this data is PubChem BioAssay (EPA / NIEHS), in case you need it.

Read-out: UDP glucuronosyltransferase (UGT1A6), UGT1A6 (gene 54578)
assay comment: LTEA_HepaRG_UGT1A6: Life Technologies and Expression Analysis (LTEA) Assay for UDP glucuronosyltransferase (UGT1A6) using HepaRG (AID 2283539)
settings: mRNA level, 48 h; actives raise or lower the signal
The source made the active and inactive calls. Rule for the calls: active = hit-call score of the fitted dose curve at least 0.9, where 1 is the maximum; inactive = score below 0.9.
endpoint: outcome

Some solved entries appear below for comparison.
INSERT INTO assay_data (molecule, endpoint, measured) VALUES
  ('CN(C)[C@@H]1C(=O)C(C(N)=O)=C(O)[C@@]2(O)C(=O)C3=C(O)c4c(O)cccc4[C@@](C)(O)[C@H]3C[C@@H]12', 'outcome', 'inactive'),
  ('C[N+](C)(C)CC1CO1 (stereo not given)', 'outcome', 'inactive'),
  ('CCCCCCCCOC(=O)c1ccc(C(=O)OCCCCCCCC)c(C(=O)OCCCCCCCC)c1', 'outcome', 'inactive'),
  ('CS(=O)(=O)NC(=O)c1cc(Oc2ccc(C(F)(F)F)cc2Cl)ccc1[N+](=O)[O-]', 'outcome', 'inactive');

// below: outcome requested for another molecule
Qu. Any idea what outcome was measured for Nc1cc(Cl)cc(C(=O)O)c1Cl ?
Ans. inactive

====

Read-out: Interferon-gamma inducible Protein 10 (IP10), CXCL10 (gene 3627)
assay comment: BSK_BE3C_IP10: BioMAP Diversity Plus: BE3C Assay for Interferon-gamma inducible Protein 10 (IP10) Biomarker Activity (AID 2283034)
settings: primary human bronchial epithelial cells; actives raise or lower the signal
Active and inactive are the calls of the source. The calls were made as follows: active = hit-call score of the fitted dose curve at least 0.9, where 1 is the maximum; inactive = score below 0.9.
endpoint: AC50

INSERT INTO assay_data (molecule, measured) VALUES
  ('COC(=O)c1ccccc1N', 'inactive'),
  ('CCCCCCCCn1sccc1=O', '9.14 µM (active)'),
  ('CCC12COCN1COC2', 'inactive'),
  ('CCCCCOC(=O)c1ccccc1C(=O)OCCCCC', 'inactive'),
  ('c1ccc2c(c1)oc1ccccc12', 'inactive');

// below: AC50 requested for another molecule
Qu. Any idea what AC50 was measured for CC(C)COC(=O)c1ccccc1C(=O)OCC(C)C ?
Ans. inactive

====

Read-out: Phosphatase and tensin (PTEN), PTEN (gene 5728)
assay comment: LTEA_HepaRG_PTEN: Life Technologies and Expression Analysis (LTEA) Assay for Phosphatase and tensin (PTEN) using HepaRG (AID 2283523)
settings: mRNA level, 48 h; actives raise or lower the signal
The source made the active and inactive calls. The calls were made as follows: active = hit-call score of the fitted dose curve at least 0.9, where 1 is the maximum; inactive = score below 0.9.
endpoint: outcome

INSERT INTO measurements (compound, measured) VALUES
  ('C[N+](C)(C)CC1CO1 (centres undefined)', 'inactive'),
  ('[Cl-].[Cl-].[Hg+2]', 'inactive'),
  ('CO[C@@H]1[C@H](OC(=O)NC(=O)CCl)CC[C@]2(CO2)[C@H]1[C@@]1(C)O[C@@H]1CC=C(C)C', 'inactive'),
  ('c1ccc2c(c1)oc1ccccc12', 'inactive');

====

Read-out: Fatty Acid-Binding Protein 1 (FABP1), FABP1 (gene 2168)
assay comment: LTEA_HepaRG_FABP1: Life Technologies and Expression Analysis (LTEA) Assay for Fatty Acid-Binding Protein 1 (FABP1) using HepaRG (AID 2283494)
settings: mRNA level, 48 h; actives raise or lower the signal
The source made the active and inactive calls. Rule for the calls: active = hit-call score of the fitted dose curve at least 0.9, where 1 is the maximum; inactive = score below 0.9.
The categories you may choose from are T = active, F = inactive

INSERT INTO assay_data (compound, class_label) VALUES
  ('C1=Cc2cccc3cccc1c23', 'F');

Qu. Fill in: this test's call for CCC(C)c1ccc(O)cc1 (stereo not drawn) is ___
Ans. F

Qu. Fill in: this test's call for CNC(=O)Oc1cccc2c1OC(C)(C)C2 is ___
Ans. T
